# test.system: CD137 expressed on cells (CHO cells expressing CD137); Jurkat cells of the Promega CD137 luciferase reporter … (UniProt Q07011 24-255, limits assumed)
# Sequence (Q07011 24-255 limits assumed): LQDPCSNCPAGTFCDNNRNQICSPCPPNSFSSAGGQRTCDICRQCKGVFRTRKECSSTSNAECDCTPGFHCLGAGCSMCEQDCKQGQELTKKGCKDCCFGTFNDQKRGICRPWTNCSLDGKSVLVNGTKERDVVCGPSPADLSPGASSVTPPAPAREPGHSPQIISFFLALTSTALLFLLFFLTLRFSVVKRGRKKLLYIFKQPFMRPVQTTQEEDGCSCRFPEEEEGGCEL
# protocol.summary: cell-based or functional assay
parameter.measured: EC50 (nM), CD137 reporter assay, co-culture with RKO (PD-L1)
Response body: numeric value in nM, unit text excluded.

[in] Any idea what its EC50 (nM), CD137 reporter assay, co-culture with RKO (PD-L1) is? The binder is heterotandem bicyclic peptide complex BCY11379 (not fully specified; BCY8919: N-terminal acetyl; tBuAla1, Lys3 bearing the linker, D-Ala4, Nle12; Ci, Cii, Ciii on TATA scaffold; BCY10861: N-terminal acetyl; K(PYA)9 bearing the linker; Ci, Cii, Ciii on TATA scaffold) peptide 1: SDKCSAGWLTMCQXLHLCPSH peptide 2: CXPKAPYCFADPYXCA
[out] 68

[in] Which EC50 (nM), CD137 reporter assay, co-culture with RKO (PD-L1) reading was recorded for the binder heterotandem bicyclic peptide complex BCY11018 (not fully specified; BCY8920: N-terminal acetyl; tBuAla1, D-Lys4 bearing the linker, Nle12; Ci, Cii, Ciii on TATA scaffold; BCY10861: N-terminal acetyl; K(PYA)9 bearing the linker; Ci, Cii, Ciii on TATA scaffold) peptide 1: SDKCSAGWLTMCQXLHLCPSH peptide 2: CXPEKPYCFADPYXCA ?
[out] 27

[in] Which EC50 (nM), CD137 reporter assay, co-culture with RKO (PD-L1) is reported for this binder? heterotandem bicyclic peptide complex BCY11376 (not fully specified; BCY8919: N-terminal acetyl; tBuAla1, Lys3 bearing the linker, D-Ala4, Nle12; Ci, Cii, Ciii on TATA scaffold; BCY10861: N-terminal acetyl; K(PYA)9 bearing the linker; Ci, Cii, Ciii on TATA scaffold) peptide 1: SDKCSAGWLTMCQXLHLCPSH peptide 2: CXPKAPYCFADPYXCA
[out] 127

[in] Requested read-out: EC50 (nM), CD137 reporter assay, co-culture with RKO (PD-L1). Entry: heterotandem bicyclic peptide complex BCY11377 (not fully specified; BCY8920: N-terminal acetyl; tBuAla1, D-Lys4 bearing the linker, Nle12; Ci, Cii, Ciii on TATA scaffold; BCY10861: N-terminal acetyl; K(PYA)9 bearing the linker; Ci, Cii, Ciii on TATA scaffold) peptide 1: SDKCSAGWLTMCQXLHLCPSH peptide 2: CXPEKPYCFADPYXCA
[out] 40
